Biological target: T1, PACAP27 (human, L at residue 27 modified by C-terminal amidation)
T1 peptide: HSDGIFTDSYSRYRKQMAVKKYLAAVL
Test: cell-based or functional assay
Measured Inhibition (IC50) of PACAP27 (100 pM) induced cAMP in hPAC1 CHO-K1 cells, listed per entry.
Reply with just the number (in pM).

// Inhibition (IC50) of PACAP27 (100 pM) induced cAMP in hPAC1 CHO-K1 cells lookup, binder = Exemplified Antibody D (antibody, human IgG4 S228P, kappa, F234A L235A, V domains shown, IgG4, kappa light chain; also called Exemplified Ab D; Ab D) VH: EVQLLESGGGLVQPGGSLRLSCAASGFTFSSYYMSWVRQAPGKGLEWVSAISLSGGSTYYAQSHKGRFTISRDNSKNTLYLQMNSLRAEDTAVYYCVREVGASTHNYYGMDVWGQGTMVTVSS VL: DIQMTQSPSSLSASVGDRVTITCRASQSIWRWLAWYQQKPGKAPKLLIHDASQLFEGVPSRFSGSGSGTDFTFTISSLQPEDIATYYCQQFDLLPLTFGGGTKVEIKR , result: 212

Further cases:
// Inhibition (IC50) of PACAP27 (100 pM) induced cAMP in hPAC1 CHO-K1 cells lookup, binder = Exemplified Antibody A (antibody, human IgG4 S228P, kappa, F234A L235A, V domains shown, IgG4, kappa light chain; also called Exemplified Ab A; Ab A) VH: EVQLLESGGGLVQPGGSLRLSCAASGFTFSSYYMSWVRQAPGKGLEWVSAISLSGGSTYYADSHKGRFTISRDNSKNTLYLQMNSLRAEDTAVYYCVREVGASNHNYYGMDVWGQGTMVTVSS VL: DIQMTQSPSSLSASVGDRVTITCRASQSISRWLAWYQQKPGKAPKLLIHDASQLLEGVPSRFSGSGSGTDFTFTISSLQPEDIATYYCQQFDLLPLTFGGGTKVEIKR , result: 2250

// Inhibition (IC50) of PACAP27 (100 pM) induced cAMP in hPAC1 CHO-K1 cells lookup, binder = Exemplified Antibody B (antibody, human IgG4 S228P, kappa, F234A L235A, V domains shown, IgG4, kappa light chain; also called Exemplified Ab B; Ab B) VH: EVQLLESGGGLVQPGGSLRLSCAASGFTFSSYYMSWVRQAPGKGLEWVSAISLSGGSTYYAASHKGRFTISRDNSKNTLYLQMNSLRAEDTAVYYCVREVGASTHNYYGMDVWGQGTMVTVSS VL: DIQMTQSPSSLSASVGDRVTITCRASQSIWRWLAWYQQKPGKAPKLLIHDASQLFEGVPSRFSGSGSGTDFTFTISSLQPEDIATYYCQQFDLLPLTFGGGTKVEIKR , result: 270
